Quick reference for IC50 among some compounds
- system tested: Recombinant JAK3 (Homo sapiens)
- Construct: purchased Carna Biosciences
- Sequence (P52333 1-1124): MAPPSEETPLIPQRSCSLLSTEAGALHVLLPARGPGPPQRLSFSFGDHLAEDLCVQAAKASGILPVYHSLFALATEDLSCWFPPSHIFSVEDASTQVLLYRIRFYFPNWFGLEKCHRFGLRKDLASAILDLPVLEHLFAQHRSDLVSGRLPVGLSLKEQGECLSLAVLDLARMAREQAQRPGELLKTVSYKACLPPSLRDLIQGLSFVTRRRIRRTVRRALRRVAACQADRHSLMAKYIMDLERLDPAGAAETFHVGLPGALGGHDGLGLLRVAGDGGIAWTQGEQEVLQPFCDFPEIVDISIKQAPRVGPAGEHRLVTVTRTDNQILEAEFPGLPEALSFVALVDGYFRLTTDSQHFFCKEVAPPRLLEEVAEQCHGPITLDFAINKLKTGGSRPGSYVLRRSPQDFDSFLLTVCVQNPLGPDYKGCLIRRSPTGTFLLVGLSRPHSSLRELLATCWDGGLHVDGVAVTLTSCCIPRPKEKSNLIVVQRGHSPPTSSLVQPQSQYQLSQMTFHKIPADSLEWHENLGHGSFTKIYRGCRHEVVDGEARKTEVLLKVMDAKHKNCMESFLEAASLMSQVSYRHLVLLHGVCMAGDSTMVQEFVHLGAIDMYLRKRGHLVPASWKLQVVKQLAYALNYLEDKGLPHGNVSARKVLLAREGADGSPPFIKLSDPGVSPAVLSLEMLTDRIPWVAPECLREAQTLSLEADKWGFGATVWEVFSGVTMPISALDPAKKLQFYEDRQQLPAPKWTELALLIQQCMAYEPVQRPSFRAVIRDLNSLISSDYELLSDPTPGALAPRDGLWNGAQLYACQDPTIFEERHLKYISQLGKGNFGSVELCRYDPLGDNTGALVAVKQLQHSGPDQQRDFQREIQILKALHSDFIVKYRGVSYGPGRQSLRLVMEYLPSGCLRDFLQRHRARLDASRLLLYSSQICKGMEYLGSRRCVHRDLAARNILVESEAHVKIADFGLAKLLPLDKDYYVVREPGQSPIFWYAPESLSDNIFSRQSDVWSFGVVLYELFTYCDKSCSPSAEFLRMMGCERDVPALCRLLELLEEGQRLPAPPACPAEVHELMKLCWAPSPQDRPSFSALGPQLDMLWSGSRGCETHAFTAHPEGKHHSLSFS
- assay info: JAK biochemical assay (LANCE Ultra TR-FRET), JAK3
- test settings: recombinant JAK3, TR-FRET; read-out: Biochemical Assay (μM) JAK3
- Experimental: Recombinant JAK1, JAK2, JAK3 and TYK2 (Carna Biosciences) were used to develop biochemical assays in 50 mM HEPES pH 7.5, 1 mM EGTA, 10 mM MgCl2, 2 mM DTT and 0.01% Tween-20. […] The intensity of the light emission is proportional to the level of ULight substrate phosphorylation. Compounds which interfere with JAK enzyme activity show a lesser substrate phosphorylation and values are projected in terms of % inhibition in comparison to vehicle control.

>  <compound>
OCC(Cc1ccc(-n2cc(-c3ccnc4[nH]cnc34)cn2)nc1)C(F)(F)F (centres unmarked) [Example 1191]

>  <value reported>
< 0.1 µM

$$$$
>  <compound>
CC(C)[C@H](C#N)NC(=O)n1cc(-c2ccnc3[nH]c(=O)[nH]c23)cn1 [Example 1049]

>  <value reported>
< 0.5 µM

$$$$
>  <compound>
CS(=O)(=O)CCC(O)(c1ccc(-n2cc(-c3ccnc4[nH]cnc34)cn2)nc1)C(F)(F)F (centres unmarked) [Example 1223]

>  <value reported>
0.004 µM

$$$$
>  <compound>
N#CC(c1ccc(-n2cc(-c3ccnc4[nH]cnc34)cn2)cc1)C1CC1 (centres unmarked) [Example 1100]

>  <value reported>
> 0.5 µM

$$$$
>  <compound>
CC(C)N1CCC([C@](O)(c2ccc(-n3cc(-c4ccnc5[nH]cnc45)cn3)cc2)C(F)(F)F)C1 (some centres unmarked) [Example 1251]

>  <value reported>
< 0.1 µM

$$$$

Find the measured IC50 of O=S1(=O)CCN(Cc2ccc(-n3cc(-c4ccnc5[nH]cnc45)cn3)nc2)CC1 [Example 1086] and report it.
> 0.5 µM

Find the measured IC50 of N#CC(c1ccc(-n2cc(-c3ccnc4[nH]cnc34)cn2)nc1)N1CCS(=O)(=O)CC1 (centres unmarked) [Example 1113] and report it.
> 0.5 µM

Find the measured IC50 of N#CCC(=O)Nc1ccc(-n2cc(-c3ccnc4[nH]cnc34)cn2)cc1 [Example 1102] and report it.
> 0.5 µM

Value source: patent US12516056B2
